Measurement notes: Biodistribution in BALB/c nude mice bearing A431-CCK2R/A431-mock xenografts
Assay type: in vivo
Condition set: female, athymic BALB/c nude, mouse, heart, iv, 20 pmol, total radioactivity, xenografted BALB/c nude mice, i.v., ~20 pmol, 4 h p.i. (indium-111 or lutetium-177), mean ± SD n = 4; read-out: Uptake in heart
Where a SMILES comes first, the peptide text is derived from it. [ ]: non-standard residue; d: D form. The star is where a group is joined. DOTA = O=C(O)CN1CCN(CC(=O)O)CCN(CC(=O)*)CCN(CC(=O)O)CC1; 1Nal = N[C@@H](Cc1cccc2ccccc12)C(=O)O; NMeNle = CCCC[C@H](NC)C(=O)O
Measurement type: tissue uptake at 4 h (%ID/g)
Reply with just the number (in %ID/g).

Below: 3 compounds and their reported tissue uptake at 4 h.
CCCC[C@@H](C(=O)N[C@@H](CC(=O)O)C(=O)N[C@@H](Cc1cccc2ccccc12)C(=O)NC)N(C)C(=O)[C@H](Cc1c[nH]c2ccccc12)NC(=O)CNC(=O)[C@H](Cc1ccc(O)cc1)NC(=O)[C@H](C)NC(=O)[C@@H](CCC(=O)O)NC(=O)CN1CCN(CC(=O)O)CCN(CC(=O)O)CCN(CC(=O)O)CC1 [[^111In]In-DOTA-MGS5[NHCH3], metal not drawn] :: 0.06
CCCC[C@@H](C(=O)N[C@@H](CC(=O)O)C(=O)N[C@@H](Cc1cccc2ccccc12)C(N)=O)N(C)C(=O)[C@H](Cc1c[nH]c2ccccc12)NC(=O)CNC(=O)[C@H](Cc1ccc(O)cc1)NC(=O)[C@H](C)NC(=O)[C@@H](CCCCN)NC(=O)CN1CCN(CC(=O)O)CCN(CC(=O)O)CCN(CC(=O)O)CC1 [[^111In]In-DOTA-[DLys^1]MGS5, metal not drawn] ({DOTA}-[dK]AYGW[NMeNle]D[1Nal]-NH2) :: 0.22
CCCC[C@@H](C(=O)N[C@@H](CC(=O)O)C(=O)N[C@@H](Cc1ccc2ccccc2c1)C(N)=O)N(C)C(=O)[C@H](Cc1c[nH]c2ccccc12)NC(=O)CNC(=O)[C@H](Cc1ccc(O)cc1)NC(=O)[C@H](C)NC(=O)[C@@H](CCC(=O)O)NC(=O)CN1CCN(CC(=O)O)CCN(CC(=O)O)CCN(CC(=O)O)CC1 [[^111In]In-DOTA-[2Nal^8]MGS5, metal not drawn] :: 0.08

Consider the record given below.
Data request: Requested field: tissue uptake at 4 h. Item: CCCC[C@@H](C(=O)N[C@@H](CC(=O)O)C(=O)N(C)[C@@H](Cc1cccc2ccccc12)C(N)=O)N(C)C(=O)[C@H](Cc1c[nH]c2ccccc12)NC(=O)CNC(=O)[C@H](Cc1ccc(O)cc1)NC(=O)[C@H](C)NC(=O)[C@@H](CCC(=O)O)NC(=O)CN1CCN(CC(=O)O)CCN(CC(=O)O)CCN(CC(=O)O)CC1 [[^111In]In-DOTA-[(N-Me)1Nal^8]MGS5, metal not drawn]
Data returned: 0.14
